- Tested on: morningglory
- assay name: Test C pre-/postemergence herbicide test
- Format: in vivo, Ipomoea coccinea
- setup conditions: Postemergence, 62 g ai/ha; scale 0 (no effect) to 100 (complete control)
measurement label: Plant response rating, Morningglory

Some compounds with recorded Plant response rating, Morningglory:
O=C1NCC(c2cccc(OC(F)F)c2)C1C(=O)Nc1ccccc1F (stereo not shown): 25
CN1CC(c2ccc(C(F)(F)F)cc2)C(C(=O)Nc2cccc(F)c2F)C1=O (stereo not shown): 35
O=C1NCC(c2cccc(Br)c2)C1C(=O)Nc1ccc(F)c(F)c1F (stereo not shown): 0

Continue with the next compound.
Which value of Plant response rating, Morningglory has been reported for "O=C1NC[C@H](c2cccc(C(F)(F)F)c2)[C@H]1C(=O)Nc1ccccc1F" in the records?
5

----------
- System: panicum, fall
- assay name: Test E preemergence herbicide test
- Type: in vivo, Panicum dichotomiflorum
- Design: key: 0 = no effect, 100 = complete control
- setup conditions: 62 g ai/ha
measurement label: Plant response rating, Panicum, Fall
The answer should be a number; do not append a unit.

Some compounds with recorded Plant response rating, Panicum, Fall:
O=C1NC[C@H](c2cccc(C(F)(F)F)c2)[C@H]1C(=O)Nc1ccccc1F [Compound 204]: 0
O=C1NCC(c2ccc(Cl)c(Cl)c2)C1C(=O)Nc1ccccc1F (racemic) [Compound 14]: 0
O=C1NCC(c2ccc(C(F)(F)F)cc2)C1C(=O)Nc1cccc(F)c1F (racemic) [Compound 202]: 0

Continue with the next compound.
Which value of Plant response rating, Panicum, Fall has been reported for O=C1NCC(c2ccc(F)c(F)c2)C1C(=O)Nc1cccc(F)c1F (stereo not shown) [Compound 17] in the records?
0

----------
- System: johnsongrass
- assay name: Test C pre-/postemergence herbicide test
- Format: in vivo, Sorghum halepense
- setup conditions: Preemergence, 250 g ai/ha
Entries and their Plant response rating (scale of 0 to 100), Johnsongrass values follow.

Some compounds with recorded Plant response rating (scale of 0 to 100), Johnsongrass:
CN1CC(c2ccc(C(F)(F)F)cc2)C(C(=O)Nc2cccc(F)c2F)C1=O (stereo not shown): 85
O=C1NCC(c2cccc(Br)c2)C1C(=O)Nc1ccc(F)c(F)c1F (stereo not shown): 75
O=C1NCC(c2ccc(F)c(C(F)(F)F)c2)C1C(=O)Nc1cccc(F)c1F (racemic): 90

Reported Plant response rating (scale of 0 to 100), Johnsongrass for johnsongrass, given O=C1NCC(c2ccc(F)cc2)C1C(=O)Nc1ccc(F)c(F)c1F (racemic) ?
65

Reported Plant response rating (scale of 0 to 100), Johnsongrass for johnsongrass, given O=C1NCC(c2cccc(OC(F)F)c2)C1C(=O)Nc1ccccc1F (stereo not shown) ?
60

Reported Plant response rating (scale of 0 to 100), Johnsongrass for johnsongrass, given O=C1NCC(c2cccc(C(F)(F)F)c2)C1C(=O)Nc1ccc(F)c(F)c1F (stereo not shown) ?
90

Reported Plant response rating (scale of 0 to 100), Johnsongrass for johnsongrass, given O=C1NCC(c2ccc(F)c(F)c2)C1C(=O)Nc1cccc(F)c1F (racemic) ?
75

----------
- System: velvetleaf
- assay name: Test C pre-/postemergence herbicide test
- Assay type: in vivo, Abutilon theophrasti
- setup conditions: Preemergence, 125 g ai/ha; scale 0 to 100 (0 no effect, 100 complete control)
measurement label: Plant response rating, Velvetleaf
The answer should be a number; do not append a unit.

O=C1NCC(c2ccc(F)c(F)c2)C1C(=O)Nc1cccc(F)c1F (stereo not drawn) [Compound 17]: 0
O=C1NCCC1C(=O)N(c1ccc(F)c(F)c1)c1ccccc1F (stereo not drawn) [Compound 5]: 0

Continue with the next molecule.
Which value of Plant response rating, Velvetleaf has been reported for Cc1ccccc1NC(=O)C1C(=O)NCC1c1cccc(C(F)(F)F)c1 (racemic) [Compound 109] in the records?
0
